Attribution: patent US8916702B2

Tested on: HCV pseudoparticles (genotype 1a HCV E1 and E2 envelope, H77C isolate)
Assay: microbe, parasite or virus in culture
Format: cell-based
Settings: HCV pseudoparticles (genotype 1a, H77C) in Huh7 cells; average of duplicate; luciferase 2 days after infection
value_type: pEC50
# pEC50: negative log10 of molar concentration; output just the value

Exercise: Fill in: pEC50 of COC(=O)[C@H](CCNC(=O)C(=O)Nc1ccc(C)cc1)NC(=O)c1ccc(Nc2nc(NC3(c4ccc(Cl)cc4)CC3)nc(OCC(F)(F)F)n2)cc1 [Compound 3217] is ___
Key: 10.06
